tested on: 454973-116-R2-J3-PDC complex spheroid viability; assay: Anticancer human tumor 454973-116-R2-J3-PDC patient-derived pancreatic carcinoma cell line growth inhibition [POLQ]; conditions: second compound 10 µM; first compound 1 µM; stronger effect = lower value;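 note: spheroids exposed to drugs for seven days before measurement; percent viability relative to DMSO vehicle control wells taken as 100%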
Exercise: for every item that follows, state its recorded viability, T/C.
Numbers only, in %.

{"compound": "CC(C)n1c(=O)n(C)c2cnc3cc(F)c(-c4ccc(OCCCN5CCCCC5)nc4)cc3c21 + Nc1ccc(C#CCN(C(=O)Cc2ncc(C(F)(F)F)cc2C(F)(F)F)c2ccc(F)cc2)nn1", "viability, T/C [%]": 114}
{"compound": "Nc1ccn(C2OC(CO)C(O)C2(F)F)c(=O)n1 (stereo not drawn) + Nc1ccc(C#CCN(C(=O)Cc2ncc(C(F)(F)F)cc2C(F)(F)F)c2ccc(F)cc2)nn1", "viability, T/C [%]": 6.28}

Okay, now this compound:
q: Any idea what its viability, T/C is? The compound is O=C(Nc1ccc(O)c(NS(=O)(=O)c2ccc(F)cc2)c1)c1ccc(-c2ccccc2)cc1 + Nc1ccc(C#CCN(C(=O)Cc2ncc(C(F)(F)F)cc2C(F)(F)F)c2ccc(F)cc2)nn1
a: 120
